Peptide text beside a SMILES is read from it.
endpoint: Stability observed AUC
Numbers only.

Solved entries:
compound	result.value
C[C@H](NC(=O)[C@@H](N)Cc1ccc(O)cc1)C(=O)O	4593
NC(=O)C[C@H](N)C(=O)N[C@@H](Cc1ccc(O)cc1)C(=O)O [Asn-Tyr] (H-Asn-Tyr-OH)	240
N[C@@H](Cc1ccc(O)cc1)C(=O)NCC(=O)O	3384

What value of Stability observed AUC has been reported for the following compound? N[C@@H](Cc1c[nH]c2ccccc12)C(=O)N[C@@H](Cc1c[nH]cn1)C(=O)O [Trp-His] (H-Trp-His-OH) 2934

###

Peptide text beside a SMILES is read from it.
Could you please report measured Stability observed AUC for the items listed next?
Give bare numbers.

Recorded Stability observed AUC, per entry:
compound	endpoint	result.value
N[C@@H](Cc1c[nH]c2ccccc12)C(=O)NCC(=O)O [Trp-Gly] (H-Trp-Gly-OH)	Stability observed AUC	4280
N[C@@H](Cc1c[nH]c2ccccc12)C(=O)N1CCC[C@H]1C(=O)O [Trp-Pro] (H-Trp-Pro-OH)	Stability observed AUC	4606

Please supply Stability observed AUC for each of the following items, keeping them in order.
1. NC(=O)C[C@H](NC(=O)[C@@H](N)Cc1c[nH]c2ccccc12)C(=O)O [Trp-Asn] (H-Trp-Asn-OH)
2. N=C(N)NCCC[C@H](NC(=O)CN)C(=O)O [Gly-Arg] (H-Gly-Arg-OH)

1: 4812; 2: 4622

// data source = patent EP2161029A1
